target: recombinant human 17β-HSD2 (Homo sapiens, UniProt P37059); construct: made in house; host or cells: Sd9 (Sf9) insect cells, baculovirus (Bac to Bac Expression System); assay: Inhibition of recombinant human 17β-HSD2; assay type: biochemical; conditions: inhibitor 1 μM; 50 nM estradiol, 1 mM NADH, 30 min RT
Sequence (P37059 whole entry): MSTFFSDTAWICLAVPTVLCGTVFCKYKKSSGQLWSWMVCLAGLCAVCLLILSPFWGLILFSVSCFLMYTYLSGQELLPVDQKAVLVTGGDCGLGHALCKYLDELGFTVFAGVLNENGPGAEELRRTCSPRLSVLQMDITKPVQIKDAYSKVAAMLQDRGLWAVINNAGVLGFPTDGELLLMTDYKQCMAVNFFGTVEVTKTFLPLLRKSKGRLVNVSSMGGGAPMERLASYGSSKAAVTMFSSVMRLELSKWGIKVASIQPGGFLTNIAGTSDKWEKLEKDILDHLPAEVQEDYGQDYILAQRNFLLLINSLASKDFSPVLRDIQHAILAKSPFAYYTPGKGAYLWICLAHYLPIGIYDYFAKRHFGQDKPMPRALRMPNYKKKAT
measured metric: inhibition at 1 µM (%)
Enter your answer as a number in %; do not include the unit.

Worked examples follow.
C[C@]12CCC3c4cccc(F)c4CCC3C1[C@H](CCC(=O)Nc1ncccc1F)C/C2=N\O (stereo partly shown) [Compound 142] | -1
C[C@]12CCC3c4ccccc4CCC3C1[C@H](CCC(=O)Nc1cccnn1)C/C2=N\O (stereo partly shown) [Compound 82] | 7

Lab book: inhibition at 1 µM of C[C@]12CCC3c4ccc(F)cc4CCC3C1[C@H](CCC(=O)Nc1ncccc1F)C/C2=N/O (stereo partly shown) [Compound 150b] noted as 6

Lab book: inhibition at 1 µM of C[C@]12CCC3c4ccc(F)cc4CCC3C1[C@H](CCC(=O)Nc1nncs1)C/C2=N\O (stereo partly shown) [Compound 38] noted as 3

Lab book: inhibition at 1 µM of Cc1cnc(NC(=O)CC[C@@H]2C/C(=N\O)[C@@]3(C)CCC4c5ccc(Cl)cc5CCC4C23)o1 (stereo partly shown) [Compound 64] noted as 0

Lab book: inhibition at 1 µM of CN1CCN(c2ccc(NC(=O)CC[C@@H]3C/C(=N\O)[C@@]4(C)CCC5c6cccc(F)c6CCC5C34)nc2)CC1 (stereo partly shown) [Compound 116] noted as 26

Lab book: inhibition at 1 µM of Cc1ccnc(NC(=O)CC[C@@H]2C/C(=N\O)[C@@]3(C)CCC4c5cccc(F)c5CCC4C23)c1 (stereo partly shown) [Compound 130] noted as 14
